Assay type: physicochemical
Conditions: stored at room temperature (21-25° C.), day 480
Procedure: At each time period, 0.05 g of powder was dissolved in 10 ml-15 of ethanol, diluted to fall within the analytical range, and injected into the LCMSMS for analysis.
Documented Stability in Powder Concentrate (content by LCMSMS) across a set of compounds
Please give a number only; it is taken to be in mg/g powder.

See these solved cases before continuing.
>  <Compound>
Cc1c(C)c2c(c(C)c1OC(=O)CCC(=O)O)CC[C@@](C)(CCC[C@H](C)CCC[C@H](C)CCCC(C)C)O2 [α-Tocopheryl succinate]

>  <Observed Result>
1.76

$$$$
>  <Compound>
CCCCCc1cc(O)c2c(c1)OC(C)(C)[C@@H]1CCC(C)=C[C@@H]21 [D9 THC, delta-9-tetrahydrocannabinol, reference compound]

>  <Observed Result>
2.65

$$$$
>  <Compound>
CCCCCc1cc(O)c2c(c1)OC(C)(CCC=C(C)C)C=C2 (stereo not shown) [CBC, cannabichromene]

>  <Observed Result>
0.071

$$$$
>  <Compound>
C=C(C)[C@@H]1CCC(C)=C[C@H]1c1c(O)cc(CCCCC)cc1O [CBD, cannabidiol, reference compound]

>  <Observed Result>
5.66

$$$$
>  <Compound>
CCCCCc1cc(O)c2c(c1)OC1(C)CCC3C1C2C3(C)C (stereo not shown) [CBL, cannabicyclol]

>  <Observed Result>
0.051

$$$$
>  <Compound>
CCCc1cc(O)c2c(c1)OC(C)(C)[C@@H]1CCC(C)=C[C@@H]21 [THCV, delta-9-tetrahydrocannabivarin]

>  <Observed Result>
0.695

$$$$

Next compound, Stability in Powder Concentrate (content by LCMSMS) to be filled in.
Indicate its recorded Stability in Powder Concentrate (content by LCMSMS); the compound in question is Cc1c(C)c2c(c(C)c1O)CC[C@@](C)(CCC[C@H](C)CCC[C@H](C)CCCC(C)C)O2 [α-Tocopherol]
4.98

###

assay: Stability of cannabinoid and Vitamin E components of Beverage 2 (AB Red) stored at 8° C. and 21-25° C., LCMSMS over 570 days; conditions: 8° C., 11 days
Readout Type: Stability of Cannabinoids in AB Red (µg/mL)
Kindly answer with a numeric value in µg/mL, unit omitted.

Example entries and their recorded answers appear below.
>  <Compound>
C=C(C)[C@@H]1CCC(C)=C[C@H]1c1c(O)cc(CCCCC)c(C(=O)O)c1O

>  <Readout Type>
Stability of Cannabinoids in AB Red

>  <Observed Result>
1.65

$$$$
>  <Compound>
CCCCCc1cc(O)c2c(c1)OC1(C)CCC3C1C2C3(C)C (stereo not drawn)

>  <Readout Type>
Stability of Cannabinoids in AB Red

>  <Observed Result>
0.501

$$$$
>  <Compound>
CCCCCc1cc(O)c2c(c1)OC(C)(CCC=C(C)C)C=C2 (stereo not drawn)

>  <Readout Type>
Stability of Cannabinoids in AB Red

>  <Observed Result>
0.284

$$$$
>  <Compound>
CCCCCc1cc(O)c(C/C=C(\C)CCC=C(C)C)c(O)c1

>  <Readout Type>
Stability of Cannabinoids in AB Red

>  <Observed Result>
4.77

$$$$
>  <Compound>
CCCc1cc(O)c2c(c1)OC(C)(C)[C@@H]1CCC(C)=C[C@@H]21 [THCV, delta-9-tetrahydrocannabivarin]

>  <Readout Type>
Stability of Cannabinoids in AB Red

>  <Observed Result>
3.24

$$$$

Look up Stability of Cannabinoids in AB Red of "C=C(C)[C@@H]1CCC(C)=C[C@H]1c1c(O)cc(CCC)cc1O" and report it.
0.195

Consider the compound CCCCCc1cc2c(c(O)c1C(=O)O)[C@@H]1C=C(C)CC[C@H]1C(C)(C)O2 [D9 THCA, delta-9-tetrahydrocannabinolic acid] . State its measured Stability of Cannabinoids in AB Red.
1.35

Identify measured Stability of Cannabinoids in AB Red corresponding to "CCCCCc1cc(O)c2c(c1)OC(C)(C)c1ccc(C)cc1-2"
2.73

Assign Stability of Cannabinoids in AB Red to the following record: CCCCCc1cc(O)c2c(c1)OC(C)(C)[C@@H]1CCC(C)=C[C@@H]21 [D9 THC, delta-9-tetrahydrocannabinol, reference compound]
12.8
